Origin of the recorded values: ChEMBL document CHEMBL1275437

System: Streptococcus pneumoniae
ASSAY_METHOD_TEXT: Antibacterial activity against Streptococcus pneumoniae serotype 22 by broth microdilution method
Format: functional
I'd be grateful if you could share measured MIC90 for these entries.
Field format: number, assumed µg/mL, no unit text.

Query: Reported MIC90, molecule C[C@@H](O)[C@H]1C(=O)N2C(C(=O)O)=C([C@H]3CCCO3)S[C@H]12 : ____
Result: 0.015

Query: Repeat with C[C@H]1COc2c(N3CCN(C)CC3)c(F)cc3c(=O)c(C(=O)O)cn1c23.C[C@H]1COc2c(N3CCN(C)CC3)c(F)cc3c(=O)c(C(=O)O)cn1c23.O
Result: 1

Query: Repeat with C=CC1=C(C(=O)O)N2C(=O)[C@@H](NC(=O)/C(=N\O)c3csc(N)n3)[C@H]2SC1
Result: 0.12
